system: K562 CRISPRi cells; assay: Constant region variant library pooled growth screen, K562; assay type: cell-based, human; details: sgRNA constant region variants; relative to the original, un-modified constant region cr995 (= 1)
Observation type: Mean relative activity
Reply with the value as a number alone.

// field: Mean relative activity; key: cr671 (nucleic acid, listed as DNA, chemistry not fully specified) guide: GTTTAAGAGCTAAGCTGGAAACAGCATAGCAAGTTTAAATAAGGCTAGTCCGTTATCAACTTGAAAAGGTGGCACCGAGTCGGTGCT ; value = 0.9864

// field: Mean relative activity; key: cr144 (nucleic acid, listed as DNA, chemistry not fully specified) guide: GTTTAAGAGCTAAGCTGGAAACAGCATAGCAAGTTTAAATAAGGCTAGTCCGTTATCATGTAGAAATACAGGCACCGAGTCGGTGCT ; value = 1.007

// field: Mean relative activity; key: cr896 (nucleic acid, listed as DNA, chemistry not fully specified) guide: GTTTAAGAGCTAAGCTGGAAACAGCATAGCAAGTTTAAATAAGGCTAGTCCGTTATCAACTTGAAAAAGTGGACCCGAGTCGGGTCT ; value = 1.025

// field: Mean relative activity; key: cr666 (nucleic acid, listed as DNA, chemistry not fully specified) guide: GTTTAAGAGCTAAGCTGGAAACAGCATAGCAAGTTTAAATAAGGTTAATCCGTTATCAACTTGAAAAAGTGGAGCCGAGTCGGCTCT ; value = 0.996

// field: Mean relative activity; key: cr494 (nucleic acid, listed as DNA, chemistry not fully specified) guide: GTTTAAGAGCTAAGCTGGAAACAGCATAGCAAGTTTAAATAAGGCTAGTCCGTTATCAACTTGAAATAGTGGCACCGAGTCGGTGCT ; value = 1.016

// field: Mean relative activity; key: cr971 (nucleic acid, listed as DNA, chemistry not fully specified) guide: GTTTAAGAGCTAAGCTGGAAACAGCATAGCAAGTTTAAATAAGGCTAGTCCGTTATCAACTTAATAAAGTGGCACCGAGTCGGTGCT ; value = 1.017

// field: Mean relative activity; key: cr489 (nucleic acid, listed as DNA, chemistry not fully specified) guide: GTTTAAGAGCTAAGCTGGAAACAGCATAGCAAGTTTAAATAAGGCTAGTCCGTTATCAACTTGAGAAAGTGGGACCGAGTCGGTCCT ; value = 0.9991

// field: Mean relative activity; key: cr139 (nucleic acid, listed as DNA, chemistry not fully specified) guide: GTTTAAGAGCTAAGCTGGAAACAGCATAGCAAGTTTAAATAAGGCTAGTCCGTTATCAACTTGAAAAAGTGGCAACGAGTCGTTGCT ; value = 1.006

// field: Mean relative activity; key: cr145 (nucleic acid, listed as DNA, chemistry not fully specified) guide: GTTTAAGAGCTAAGCTGGAAACAGCATAGCAAGTTTAAATAAGGCTAGTCCGTTATCAACTTGATAAAGTGGCACCGAGTCGGTGCT ; value = 0.9925

// field: Mean relative activity; key: cr636 (nucleic acid, listed as DNA, chemistry not fully specified) guide: GTTTAAGAGCTAAGCTGGAAACAGCATAGCAAGTTTAAATAAGGCTAGTCCGTTATCAACTTGGTAAAGTGGCACCGAGTCGGTGCT ; value = 0.992

// field: Mean relative activity; key: cr155 (nucleic acid, listed as DNA, chemistry not fully specified) guide: GTTTAAGAGCTAAGCTGGAAACAGCATAGCAAGTTTAAATAAGGCTAGTCCGTTATCAATTGGAAACAATGGCATCGAGTCGATGCT ; value = 1.003

// field: Mean relative activity; key: cr393 (nucleic acid, listed as DNA, chemistry not fully specified) guide: GTTTAAGAGCTAAGCTGGAAACAGCATAGCAAGTTTAAATAAGGCTAGTCCGTTATCAACTTGACAAAGTGGCACCGAATCGGTGCT ; value = 1.004

// field: Mean relative activity; key: cr923 (nucleic acid, listed as DNA, chemistry not fully specified) guide: GTTTAAGAGCTAAGCTGGAAACAGCATAGCAAGTTTAAATAAGGCTAGTCCGTTATCAACTTGAAAAAGTGACCCCGAGTCGGGGTT ; value = 1.002

// field: Mean relative activity; key: cr945 (nucleic acid, listed as DNA, chemistry not fully specified) guide: GTTTAAGAGCTAAGCTGGAAACAGCATAGCAAGTTTAAATAAGGCTAGTCCGTTATCAACTTGAAGAAGTGGCACCGATTCGGTGCT ; value = 1.002

Values were extracted from patent US20220259593A1.
